Target: HEK-293 cells expressing a Kif5b-RET fusion protein (Homo sapiens)
Construct: KIF5B (N-terminal portion incl. coiled-coil); the other entry of the earlier key: KIF5B (P33176, Kinesin-1 heavy chain)
Sequence (P07949 713-1063 limits assumed): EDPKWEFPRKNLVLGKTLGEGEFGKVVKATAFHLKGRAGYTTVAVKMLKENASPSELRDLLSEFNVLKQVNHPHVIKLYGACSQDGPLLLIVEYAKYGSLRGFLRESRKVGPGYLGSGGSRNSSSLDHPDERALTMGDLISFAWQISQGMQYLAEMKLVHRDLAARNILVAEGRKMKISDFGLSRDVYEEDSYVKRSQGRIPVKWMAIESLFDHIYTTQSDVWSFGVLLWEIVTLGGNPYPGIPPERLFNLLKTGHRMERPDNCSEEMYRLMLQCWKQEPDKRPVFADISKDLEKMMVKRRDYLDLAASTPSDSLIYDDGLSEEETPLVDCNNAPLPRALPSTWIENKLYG
Assay: RET Cell Assay (phospho-RET Tyr1062)
Settings: HEK-293 Kif5b-RET, 1 hour incubation, phospho-RET normalized to GAPDH; read-out: KIF5B-RET pTYR1062 Cell IC50
Description: The cellular potency of compounds inhibiting RET kinase were determined in HEK-293 cells expressing a Kif5b-RET fusion protein. Briefly, HEK-293 cells expressing a Kif5b-RET fusion protein were plated at 50K cells/well in 96 well poly-D-Lysine coated plates the day prior to the assay. […] The plates were washed with PBS-0.05% Tween20,100 μL PBS is added to each well, and the plates were read on a LI-COR Aerius fluorescent plate reader. […]
Field: label. Allowed values: Satisfied (IC50 < 20 nM) or Not satisfied (IC50 >= 20 nM).

1. Cc1cc2n(n1)C(=O)NCc1c-2c2c(N)ncnc2n1C(C)C [Example 105, 2,2,2-trifluoroacetate]; Not satisfied
2. Nc1ncnc2c1c1c(n2-c2ccccc2)CCC(O)c2c-1noc2C1CC1 (stereo not shown) [Example 118, 2,2,2-trifluoroacetate]; Not satisfied
3. CC1Cc2c(c3c(N)ncnc3n2C(C)C)-c2noc(C3CC3)c2C1=O (stereo not shown); Not satisfied
4. CC(n1c2c(c3c(N)ncnc31)-c1noc(C3CC3)c1C(O)CC2)C(F)(F)F (stereo not shown); Satisfied
5. CC(C)n1c2c(c3c(N)ncnc31)-c1cc3c(F)cccc3n1C(=O)NC2; Not satisfied
6. CC(C)n1c2c(c3c(N)ncnc31)-c1cc3ccc(C(=O)NC4(C)CC4)cc3n1CCC2; Not satisfied
7. CC(C)n1c2c(c3c(N)ncnc31)-c1cc3ccc(C(=O)Nc4ccn(-c5ccccc5)n4)cc3n1CCC2; Satisfied
8. CC(C)n1c2c(c3c(N)ncnc31)-c1noc(C3CC3)c1C(=O)NC2 [Example 19, 2,2,2-trifluoroacetate]; Not satisfied
9. CC(C)n1c2c(c3c(N)ncnc31)-c1noc(C3CC3)c1C(=O)N(CCc1ccccc1)C2; Not satisfied
10. CC(C)n1c2c(c3c(N)ncnc31)-c1noc(C3CC3)c1[C@@H](O)[C@@H](C)C2 (relative stereo); Not satisfied
11. CC(C)n1c2c(c3c(N)ncnc31)-c1noc(C3CC3)c1C(=O)OC2; Not satisfied
12. CC(C)n1c2c(c3c(N)ncnc31)-c1noc(C3CC3)c1C(O)CC2 (racemic); Satisfied
13. CC(=O)N1Cc2c(noc2C2CC2)-c2c(n(C(C)C)c3ncnc(N)c23)C1 [Example 36, 2,2,2-trifluoroacetate]; Not satisfied
14. CC(C)n1c2c(c3c(N)ncnc31)-c1cc3cc(Cl)ccc3n1C(=O)NC2; Satisfied
15. CC(C)n1c2c(c3c(N)ncnc31)-c1noc(C3CC3)c1CN(S(C)(=O)=O)C2 [Example 35, 2,2,2-trifluoroacetate]; Not satisfied
16. Nc1ncnc2c1c1c(n2[C@H]2C[C@H](CO)C2)CCC(O)c2c-1noc2C1CC1 (stereo partly shown); Not satisfied
17. Nc1ncnc2c1c1c(n2C2CCC2)CCC(O)c2c-1noc2C1CC1 (stereo not shown); Not satisfied
18. C[C@H](n1c2c(c3c(N)ncnc31)-c1noc(C3CC3)c1[C@@H](O)CC2)C(F)(F)F (single isomer, unassigned) [Example 146, 2,2,2-trifluoroacetate]; Not satisfied
19. COCCn1ccc(NC(=O)c2ccc3cc4n(c3c2)CCCc2c-4c3c(N)ncnc3n2C(C)C)n1; Not satisfied
20. CCN1Cc2c(c3c(N)ncnc3n2C(C)C)-c2noc(C3CC3)c2C1=O; Satisfied
21. COC(=O)[C@H]1C[C@@H](n2c3c(c4c(N)ncnc42)-c2noc(C4CC4)c2C(O)CC3)C1 (stereo partly shown); Not satisfied
22. Nc1ncnc2c1c1c(n2C(CF)CF)CCC(O)c2c-1noc2C1CC1 (stereo not shown); Not satisfied
23. CC(C)n1c2c(c3c(N)ncnc31)-c1cc3ccc(C(=O)NC4CC4)cc3n1C(=O)NC2; Not satisfied
24. CC(C)n1c2c(c3c(N)ncnc31)-c1cc3ccccc3n1C(=O)CC2; Not satisfied
25. Nc1ncnc2c1c1c(n2C(CF)CF)CC[C@@H](O)c2c-1noc2C1CC1 (single isomer, unassigned); Satisfied
26. Nc1ncnc2c1c1c(n2[C@@H]2C[C@@H](O)[C@@H](O)C2)CCC(O)c2c-1noc2C1CC1 (stereo partly shown); Not satisfied
27. CC(C)n1c2c(c3c(N)ncnc31)-c1noc(C3CC3)c1C=CC2; Not satisfied
28. CC(C)n1c2c(c3c(N)ncnc31)-c1noc(C3CC3)c1[C@@H](O)CC2 (single isomer, unassigned); Not satisfied
29. CC(C)n1c2c(c3c(N)ncnc31)-c1noc(C3CC3)c1[C@H](O)CC2 (single isomer, unassigned); Satisfied
30. CC1(n2c3c(c4c(N)ncnc42)-c2noc(C4CC4)c2[C@H](O)CC3)CC1; Satisfied
